system: MCF-7 breast cancer cell line; experiment: MTT cell viability assay, MCF-7; format: cell-based, human; conditions: Homo sapiens, MCF7, 72 hours exposure
endpoint: pIC50
Reminder that pIC50 means the negative base-10 logarithm of the concentration expressed in mol/L.

Report pIC50 for Oc1ccccc1N=Cc1ccc(N2CCOCC2)cc1 [(HL), 2-(4-morpholinobenzylideneamino)phenol] please. 3.98

###

assay: Nitric oxide scavenging assay; format: biochemical; conditions: 160 µM, 546 nm
endpoint: % Inhibition nitric oxide (%)
Give the value, in units of %, as a plain number.

Given the compound [O-]c1ccccc1N=Cc1ccc(N2CCOCC2)cc1.[O-]c1ccccc1N=Cc1ccc(N2CCOCC2)cc1.[Zn+2].c1ccc(-c2ccccn2)nc1 [(2a), [Zn(L)2(bpy)]] , what is its reported % Inhibition nitric oxide? 37.69

Give the measured % Inhibition nitric oxide of O=C1O[C@H]([C@@H](O)CO)C(O)=C1O [Ascorbic acid, reference compound] . 52.68

Suppose we examine the compound `Oc1ccccc1N=Cc1ccc(N2CCOCC2)cc1` ; what % Inhibition nitric oxide value has been reported? 33.21

Please look up its % Inhibition nitric oxide: [Cu+2].[O-]c1ccccc1N=Cc1ccc(N2CCOCC2)cc1.[O-]c1ccccc1N=Cc1ccc(N2CCOCC2)cc1.c1ccc(-c2ccccn2)nc1 [(1a), [Cu(L)2(bpy)]] 42.14

###

Provide the reported Relative specific viscosity (η/η0)^1/3 of each item.
system: calf thymus deoxyribonucleic acid; assay: DNA binding by viscometric (hydrodynamic) technique; settings: [complex]/[DNA] = 0.6

Which Relative specific viscosity (η/η0)^1/3 reading was recorded for the molecule [O-]c1ccccc1N=Cc1ccc(N2CCOCC2)cc1.[O-]c1ccccc1N=Cc1ccc(N2CCOCC2)cc1.[Zn+2].c1ccc(-c2ccccn2)nc1 [(2a), [Zn(L)2(bpy)]] ? 0.87

Report Relative specific viscosity (η/η0)^1/3 for `Oc1ccccc1N=Cc1ccc(N2CCOCC2)cc1` please. 0.75

// Relative specific viscosity (η/η0)^1/3 lookup, key: [Cu+2].[O-]c1ccccc1N=Cc1ccc(N2CCOCC2)cc1.[O-]c1ccccc1N=Cc1ccc(N2CCOCC2)cc1.c1ccc(-c2ccccn2)nc1 [(1a), [Cu(L)2(bpy)]] 1.22

Field request: Relative specific viscosity (η/η0)^1/3 | item: CC[n+]1c(-c2ccccc2)c2cc(N)ccc2c2ccc(N)cc21 [EB (control), Ethidium bromide, reference compound] 1.63

###

assay: DPPH radical scavenging assay; format: biochemical; conditions: 240 µM, 517 nm
endpoint: % Inhibition DPPH (%)
Write down the numeric answer in % and omit the unit.

Item [Cu+2].[O-]c1ccccc1N=Cc1ccc(N2CCOCC2)cc1.[O-]c1ccccc1N=Cc1ccc(N2CCOCC2)cc1.c1ccc(-c2ccccn2)nc1 [(1a), [Cu(L)2(bpy)]] has what recorded % Inhibition DPPH? 68.64

# input molecule: [O-]c1ccccc1N=Cc1ccc(N2CCOCC2)cc1.[O-]c1ccccc1N=Cc1ccc(N2CCOCC2)cc1.[Zn+2].c1ccc(-c2ccccn2)nc1 [(2a), [Zn(L)2(bpy)]] ; wanted: its % Inhibition DPPH 59.55

What value of % Inhibition DPPH has been reported for the following molecule? O=C1O[C@H]([C@@H](O)CO)C(O)=C1O [Ascorbic acid, reference compound] 85.65

Record request: % Inhibition DPPH value, item `Oc1ccccc1N=Cc1ccc(N2CCOCC2)cc1` 52.45
